These entries and their values trace back to patent US9511134B2.

# assayed_system: DRB1*0401 (Homo sapiens, UniProt P01903+P01911, A100K/A169T/F76Y/I96L/K127E/L162R/M171V/N62H/P40V/Q125Y/R42H/S133A/S149N/S66Y/V115G/V209L/W38E)
# Construct: made in house; host or cells: EBV-transformed homozygous human B cell lines, transfected fibroblasts or single-allele 721.221 transfectants
# method_description: biochemical
# Format: binding
# details: read-out: IC50 nM to purified HLA DRB1*0401
quantity: IC50 (nM)
Just the number in nM, nothing appended.

Query CC[C@H](C)[C@H](NC(=O)CNC(=O)[C@H](CO)NC(=O)[C@@H](NC(=O)CNC(=O)[C@H](Cc1ccccc1)NC(=O)[C@H](CO)NC(=O)[C@@H]1CCCN1C(=O)[C@@H](N)CC(C)C)C(C)C)C(=O)N[C@@H](CC(N)=O)C(=O)N[C@@H](CCC(=O)O)C(=O)N[C@@H](CO)C(=O)N[C@@H](C)C(=O)N[C@@H](CC(=O)O)C(=O)N[C@@H](CCSC)C(=O)O [Flu.PB1.512] yields IC50 of 44

Query CC[C@H](C)[C@H](NC(=O)[C@H](CCCCN)NC(=O)[C@H](CC(N)=O)NC(=O)[C@H](C)NC(=O)[C@H](CCCCN)NC(=O)[C@H](CCC(=O)O)NC(=O)[C@H](CC(C)C)NC(=O)[C@H](Cc1ccc(O)cc1)NC(=O)[C@H](Cc1ccc(O)cc1)NC(=O)[C@@H](NC(=O)[C@H](Cc1c[nH]cn1)NC(=O)[C@@H](NC(=O)[C@H](CCC(=O)O)NC(=O)[C@H](CCCNC(=N)N)NC(=O)[C@@H](N)CCCNC(=N)N)C(C)C)[C@@H](C)CC)C(=O)O [Flu.PA.127] yields IC50 of 63

Query CC[C@H](C)[C@H](NC(=O)[C@@H](NC(=O)[C@H](CCCNC(=N)N)NC(=O)[C@H](CCC(N)=O)NC(=O)[C@@H](NC(=O)[C@@H](NC(=O)[C@H](CCSC)NC(=O)[C@H](CCCCN)NC(=O)[C@H](CCCCN)NC(=O)[C@@H](N)[C@@H](C)O)C(C)C)[C@@H](C)O)[C@@H](C)O)C(=O)NCC(=O)N[C@@H](CCCCN)C(=O)N[C@@H](CCCCN)C(=O)N[C@@H](CCCCN)C(=O)N[C@@H](CCC(N)=O)C(=O)O [Flu.PB1.199] yields IC50 of 71

Query CC[C@H](C)[C@H](NC(=O)[C@H](CCSC)NC(=O)[C@@H]1CCCN1C(=O)[C@H](CC(N)=O)NC(=O)[C@@H](N)Cc1ccccc1)C(=O)N[C@H](C(=O)N[C@@H](CCC(=O)O)C(=O)N[C@@H](CC(C)C)C(=O)N[C@@H](C)C(=O)N[C@@H](CCC(=O)O)C(=O)N[C@@H](CCCCN)C(=O)N[C@H](C(=O)N[C@@H](CCSC)C(=O)N[C@@H](CCCCN)C(=O)N[C@@H](CCC(=O)O)C(=O)O)[C@@H](C)O)C(C)C [Flu.PA.12] yields IC50 of 29

Query CC[C@H](C)[C@H](NC(=O)[C@H](CO)NC(=O)[C@H](CC(N)=O)NC(=O)[C@@H](N)CCC(N)=O)C(=O)N[C@H](C(=O)N[C@H](C(=O)N[C@@H](CCC(=O)O)C(=O)N[C@@H](CCCNC(=N)N)C(=O)N[C@@H](CCSC)C(=O)N[C@H](C(=O)N[C@@H](CC(C)C)C(=O)N[C@@H](CO)C(=O)N[C@@H](C)C(=O)N[C@@H](Cc1ccccc1)C(=O)N[C@@H](CC(=O)O)C(=O)O)C(C)C)[C@@H](C)CC)[C@@H](C)O [Flu.NP.61] yields IC50 of 430

Query CSCC[C@H](NC(=O)[C@H](CC(C)C)NC(=O)[C@@H](NC(=O)[C@H](CCCNC(=N)N)NC(=O)[C@H](Cc1c[nH]cn1)NC(=O)[C@@H]1CCCN1C(=O)[C@H](CO)NC(=O)[C@H](CCCNC(=N)N)NC(=O)[C@H](CC(=O)O)NC(=O)[C@H](CCCCN)NC(=O)[C@@H](NC(=O)[C@@H](NC(=O)CNC(=O)[C@@H](N)CC(N)=O)[C@@H](C)O)C(C)C)[C@@H](C)O)C(=O)N[C@@H](CO)C(=O)O [Flu.NA.126] yields IC50 of 17900

Query CC[C@H](C)[C@H](NC(=O)[C@H](CCSC)NC(=O)[C@H](CS)NC(=O)[C@H](CC(=O)O)NC(=O)[C@H](CCC(=O)O)NC(=O)[C@H](CCC(N)=O)NC(=O)[C@H](CO)NC(=O)[C@H](Cc1ccccc1)NC(=O)[C@@H](NC(=O)[C@H](CCSC)NC(=O)[C@H](C)N)C(C)C)C(=O)N[C@@H](CCCCN)C(=O)N[C@@H](C)C(=O)N[C@H](C(=O)N[C@@H](CCCNC(=N)N)C(=O)O)C(C)C [Flu.PB2.404] yields IC50 of 3280
